Each recorded value in this set is attributed to patent US6492330B1.

System: endothelial cells ECV.304
Assay: Migration assay across 8 μm polycarbonate filter transwell inserts
Type: cell-based
Details: analog at optimum concentration −8M, 24 hours (Table 4)
Experimental: Polycarbonate filter transwell inserts (24 well size) with 8 μm pores (Nunc, Denmark) were used for the migration assay. ECV304 (10^4 cells/200 ul DMEM containing 0.1% BSA) was added to the upper chamber. […] The cells migrated to the lower chamber were viewed randomly at five different phase-contrast microscopic fields and the total number of cells counted using Video Pro 32 Image Analysis system. Percent inhibition in migration was determined with reference to the Control. […]
Non-standard residues stand in square brackets, D forms with d. No end group written: not given here. Aib = CC(C)(N)C(=O)O
METRIC NAME: PERCENT INHIBITION MIGRATION (%)
Expressed in %, but write only the number.

D-Leu-Met-Tyr-Pro-Thr-Tyr-Aib-Lys-OH ([dL]MYPTY[Aib]K-OH; N-terminus assumed; SMILES CSCC[C@H](NC(=O)[C@H](N)CC(C)C)C(=O)N[C@@H](Cc1ccc(O)cc1)C(=O)N1CCC[C@H]1C(=O)N[C@H](C(=O)N[C@@H](Cc1ccc(O)cc1)C(=O)NC(C)(C)C(=O)N[C@@H](CCCCN)C(=O)O)[C@@H](C)O) [DT-12] :: 58.7
Leu-Met-Tyr-Pro-Thr-Tyr-D-Leu-Lys-OH (LMYPTY[dL]K-OH; N-terminus assumed; SMILES CSCC[C@H](NC(=O)[C@@H](N)CC(C)C)C(=O)N[C@@H](Cc1ccc(O)cc1)C(=O)N1CCC[C@H]1C(=O)N[C@H](C(=O)N[C@@H](Cc1ccc(O)cc1)C(=O)N[C@H](CC(C)C)C(=O)N[C@@H](CCCCN)C(=O)O)[C@@H](C)O) [DT-14] :: 77.3

## Input What reported PERCENT INHIBITION MIGRATION corresponds to D-Phe-Gln-Trp-Aib-Val-Gly-His-Ile-NH2 ([dF]QW[Aib]VGHI-NH2; N-terminus assumed; SMILES CC[C@H](C)[C@H](NC(=O)[C@H](Cc1c[nH]cn1)NC(=O)CNC(=O)[C@@H](NC(=O)C(C)(C)NC(=O)[C@H](Cc1c[nH]c2ccccc12)NC(=O)[C@H](CCC(N)=O)NC(=O)[C@H](N)Cc1ccccc1)C(C)C)C(N)=O) [DT-26] on endothelial cells ECV.304?
## Output 0
